- system: T1, human TMEM106B (human, UniProt Q9NUM4 2-274)
- T1 construct: Full-length, on transiently transfected HEK293 cells, or natively expressed on HeLa, U251 and A549 cells; also called huTMEM106B; huTMEM
- experiment: FACS HEK+huTMEM, 10 ug/ml;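 also: purified mouse IgG antibodies at 10 µg/ml bound to HEK293 cells transiently expressing human TMEM106B, measured by flow cytometry as median fluorescence intensity of propidium iodide negative live cells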
Task for the reader: assign each of the following binders its reported MFI.
// return a plain number; no unit text

// Input: anti-TMEM106B antibody TM-14 (antibody, V domains shown, mouse IgG from hybridoma) VH: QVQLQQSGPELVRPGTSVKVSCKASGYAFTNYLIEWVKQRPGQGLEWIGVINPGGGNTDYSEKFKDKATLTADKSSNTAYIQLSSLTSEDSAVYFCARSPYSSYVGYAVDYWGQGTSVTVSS VL: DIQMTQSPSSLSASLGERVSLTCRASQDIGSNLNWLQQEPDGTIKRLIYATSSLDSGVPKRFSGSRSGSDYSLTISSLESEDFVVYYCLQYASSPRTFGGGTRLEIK . Output its MFI only. 1190

Report MFI for anti-TMEM106B antibody TM-33 (antibody, V domains shown, mouse IgG from hybridoma) VH: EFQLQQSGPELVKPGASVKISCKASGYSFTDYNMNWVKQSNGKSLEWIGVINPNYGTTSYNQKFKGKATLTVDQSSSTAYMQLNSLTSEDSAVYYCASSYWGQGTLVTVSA VL: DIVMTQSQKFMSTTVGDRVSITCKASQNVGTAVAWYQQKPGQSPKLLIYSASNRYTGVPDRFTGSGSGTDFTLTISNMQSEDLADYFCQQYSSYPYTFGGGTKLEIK 12100

Name the recorded MFI of the binder listed here: anti-TMEM106B antibody TM-26 (antibody, V domains shown) VH: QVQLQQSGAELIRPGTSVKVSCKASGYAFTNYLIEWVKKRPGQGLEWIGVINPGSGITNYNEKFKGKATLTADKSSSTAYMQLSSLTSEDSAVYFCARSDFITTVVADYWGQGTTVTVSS VL: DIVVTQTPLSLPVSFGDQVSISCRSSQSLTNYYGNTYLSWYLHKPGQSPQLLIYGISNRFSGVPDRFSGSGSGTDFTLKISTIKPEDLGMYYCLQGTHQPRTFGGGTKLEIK 3850

# return recorded MFI for input anti-TMEM106B antibody TM-23 (antibody, V domains shown) VH: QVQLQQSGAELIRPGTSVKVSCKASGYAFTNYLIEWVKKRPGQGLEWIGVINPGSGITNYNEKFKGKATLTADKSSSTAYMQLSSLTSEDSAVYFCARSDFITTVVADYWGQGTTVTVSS VL: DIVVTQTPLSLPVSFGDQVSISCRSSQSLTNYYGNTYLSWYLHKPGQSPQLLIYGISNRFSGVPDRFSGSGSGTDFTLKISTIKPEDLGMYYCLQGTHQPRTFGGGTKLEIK 12400

// Input: anti-TMEM106B antibody TM-5 (antibody, V domains shown) VH: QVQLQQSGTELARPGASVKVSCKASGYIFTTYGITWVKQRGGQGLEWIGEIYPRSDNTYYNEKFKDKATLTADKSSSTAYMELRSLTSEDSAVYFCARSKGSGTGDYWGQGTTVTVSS VL: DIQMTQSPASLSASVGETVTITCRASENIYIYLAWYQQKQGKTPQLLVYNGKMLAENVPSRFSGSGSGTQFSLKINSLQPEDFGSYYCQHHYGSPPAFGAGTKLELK . Output its MFI only. 59300
